MEASURED_TARGET: Phenylethanolamine N-methyltransferase (Bos taurus, UniProt P10938)
Sequence (P10938 whole entry): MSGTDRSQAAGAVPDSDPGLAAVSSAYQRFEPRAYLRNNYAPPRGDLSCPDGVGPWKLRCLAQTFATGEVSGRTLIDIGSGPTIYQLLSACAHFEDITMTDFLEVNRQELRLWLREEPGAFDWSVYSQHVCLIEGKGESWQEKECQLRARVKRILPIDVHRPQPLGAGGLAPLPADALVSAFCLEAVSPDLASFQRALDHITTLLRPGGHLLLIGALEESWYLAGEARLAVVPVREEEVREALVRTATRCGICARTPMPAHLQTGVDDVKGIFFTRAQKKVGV
MEASUREMENT_NOTES: In vitro inhibitory activity measured against bovine adrenal phenylethanolamine N-methyltransferase(PNMT); Ki values determined at incubation times of 5, 10, 15, 20 and 30 min
OBSERVATION_TYPE: pKi
Numbers only, as −log10 of the molar value.

Which measured pKi belongs to COC(=O)C1Cc2ccccc2CN1 (stereo unspecified) , tested on Phenylethanolamine N-methyltransferase (Bos taurus, UniProt P10938)?
4.16

----------
MEASURED_TARGET: Phenylethanolamine N-methyltransferase (Bos taurus, UniProt P10938)
MEASUREMENT_NOTES: In vitro inhibitory activity measured against bovine adrenal phenylethanolamine N-methyltransferase(PNMT)
pKi: −log10 of the molar value.
Criterion: pKi meeting or surpassing 6. Met: true (1). Not met: false (0).

Some solved entries appear below for comparison.
compound="NC(=O)C1Cc2ccccc2CN1 (stereo unspecified)" assigned_label="false (0)"
compound="CCC1Cc2ccccc2CN1 (stereo unspecified)" assigned_label="false (0)"
compound="O=C(O)C1Cc2ccccc2CN1 (stereo unspecified)" assigned_label="false (0)"
compound="OCC1Cc2ccccc2CN1 (stereo unspecified)" assigned_label="false (0)"
compound=Clc1ccc2c(c1Cl)CNCC2 assigned_label="true (1)"

Consider now this further compound.
Dear colleague, could you confirm whether OCC1Cc2ccc(Cl)c(Cl)c2CN1 (stereo unspecified) has pKi at or above 6?
true (1)

Values compiled from ChEMBL document CHEMBL1124088.
